System: mammary epithelial HBL100 cells
protocol: MTT cytotoxicity assay, HBL100
Type: cell-based, human
condition: HBL100 (non-cancerous)
pIC50: −log10 of the molar value.

- compound: "CCN(CC)C1=[S+][Pd-2]2([Cl])[c]3c(cccc3-c3sc4ccccc4[n+]32)O1 (stereo not drawn)"
  assay target: "mammary epithelial HBL100 cells"
  pIC50: 4.99
- compound: "CN(C)C1=[S+][Pd-2]2([Cl])[c]3c(cccc3-c3sc4ccccc4[n+]32)O1 (stereo not drawn)"
  assay target: "mammary epithelial HBL100 cells"
  pIC50: 5.49
- compound: "[Cl][Pd-2]12[S+]=P(c3ccccc3)(c3ccccc3)Oc3cccc([c]31)-c1sc3ccccc3[n+]12 (stereo not drawn) [VI (X = O), reference compound]"
  assay target: "mammary epithelial HBL100 cells"
  pIC50: 5.03

###

Reported values of pIC50 for individual entries
System: prostate adenocarcinoma (PC3) cells
protocol: MTT cytotoxicity assay, PC3
Format: cell-based, human
condition: PC3, MTT assay
pIC50: −log10 of the molar value.

- molecule: "CCN(CC)C1=[S+][Pd-2]2([Cl])[c]3c(cccc3-c3sc4ccccc4[n+]32)O1 (stereo not drawn)"
  pIC50: 5.07
- molecule: "[Cl][Pd-2]12[S+]=P(c3ccccc3)(c3ccccc3)Oc3cccc([c]31)-c1sc3ccccc3[n+]12 (stereo not drawn) [VI (X = O), reference compound]"
  pIC50: 5.18
- molecule: "CN(C)C1=[S+][Pd-2]2([Cl])[c]3c(cccc3-c3sc4ccccc4[n+]32)O1 (stereo not drawn)"
  pIC50: 5.96

Reference source for all entries: paper PMC10744248
